Source listed as the supplement of paper PMC9233669.

tested on: biotinyl-Trp-oxazolone; assay: self-aminoacylation, catalytic enhancement (BWO) (fold over background); higher = more active; k-Seq, kA / k0A0; sequences stand for … in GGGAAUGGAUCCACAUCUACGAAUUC…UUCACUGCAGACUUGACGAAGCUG
Fewer inactive variants are shown than the library holds.
So I've got a bunch of sequences here, and I need their self-aminoacylation values.
Reply with the value as a number alone.

Query :: Record request: self-aminoacylation value, item GUUACCCUGGUCAUCGAGUGC [Fam2.1 aminoacylation ribozyme variant]
Result :: 9.64

Query :: Record request: self-aminoacylation value, item CCACACCGCAAGCAAUCGGUC [Fam1B.1 aminoacylation ribozyme variant]
Result :: 1.02

Query :: Record request: self-aminoacylation value, item AUACUUCAAACCAUCGGUCUG [Fam1A.1 aminoacylation ribozyme variant]
Result :: 1.07

Query :: Record request: self-aminoacylation value, item AUUACCCUGGUCUUCGAAUGA [Fam2.1 aminoacylation ribozyme variant]
Result :: 0.642

----------
system: biotinyl-Ile-oxazolone; assay: self-aminoacylation, catalytic enhancement (BIO) (fold over background); higher = more active; k-Seq, kA / k0A0; sequences stand for … in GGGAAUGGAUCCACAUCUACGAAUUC…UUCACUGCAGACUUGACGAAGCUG
Variants at the floor of the assay were thinned out.
self-aminoacylation of 2 or higher: Fulfilled. Under 2: Not fulfilled.

Query :: Assess whether reported self-aminoacylation for CUUACUCUGGUCAUCGAGUGA [Fam2.1 aminoacylation ribozyme variant] sits at 2 or higher.
Result :: Fulfilled

Query :: Assess whether reported self-aminoacylation for AAGCCUGCUAAUAGUCGCAAG [Fam3.1 aminoacylation ribozyme variant] sits at 2 or higher.
Result :: Not fulfilled

Query :: Assess whether reported self-aminoacylation for GUUACCCUGGUCAUCGAGUGA [Fam2.1 aminoacylation ribozyme variant] sits at 2 or higher.
Result :: Fulfilled

Query :: Assess whether reported self-aminoacylation for CCACACUUCAAGCGAUCGGGC [Fam1B.1 aminoacylation ribozyme variant] sits at 2 or higher.
Result :: Fulfilled

Query :: Assess whether reported self-aminoacylation for ACUACCCUGGUCAUCGCGUGA [Fam2.1 aminoacylation ribozyme variant] sits at 2 or higher.
Result :: Fulfilled

Query :: Assess whether reported self-aminoacylation for AAUCACCUAGGUCAUCGGGCG [Fam2.2 aminoacylation ribozyme variant] sits at 2 or higher.
Result :: Fulfilled

Query :: Assess whether reported self-aminoacylation for AUUCACCUACGUCAUCGCGUG [Fam2.2 aminoacylation ribozyme variant] sits at 2 or higher.
Result :: Fulfilled

Query :: Assess whether reported self-aminoacylation for AAGUUUGCUAAUAGUCCCACG [Fam3.1 aminoacylation ribozyme variant] sits at 2 or higher.
Result :: Not fulfilled

Query :: Assess whether reported self-aminoacylation for CCACACUUCAAGCUAUCGGGC [Fam1B.1 aminoacylation ribozyme variant] sits at 2 or higher.
Result :: Not fulfilled

----------
So I've got a bunch of sequences here, and I need their self-aminoacylation values.
test system: biotinyl-Val-oxazolone; assay: self-aminoacylation, catalytic enhancement (BVO) (fold over background); higher = more active; k-Seq, kA / k0A0; sequences stand for … in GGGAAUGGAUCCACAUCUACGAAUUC…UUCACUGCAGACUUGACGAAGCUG
This sample holds only a part of the variants without activity.

Query :: Record request: self-aminoacylation value, item CUACUUCAUACAACCGGUCUG [Fam1A.1 aminoacylation ribozyme variant]
Result :: 0.84

Query :: Record request: self-aminoacylation value, item AUUCACCGAGGUAAUCGGGUG [Fam2.2 aminoacylation ribozyme variant]
Result :: 5.13

Query :: Record request: self-aminoacylation value, item AUUAUCCUGGUCAUCGAGUAA [Fam2.1 aminoacylation ribozyme variant]
Result :: 1.39

Query :: Record request: self-aminoacylation value, item CUAUUUCAAACAAUCGGUCUC [Fam1A.1 aminoacylation ribozyme variant]
Result :: 0.835

Query :: Record request: self-aminoacylation value, item AAUUUUGUUAAUAGUCGCAAG [Fam3.1 aminoacylation ribozyme variant]
Result :: 1.72

Query :: Record request: self-aminoacylation value, item AUUACGCUGGUCAUCGAGUAA [Fam2.1 aminoacylation ribozyme variant]
Result :: 1.53

Query :: Record request: self-aminoacylation value, item CCGCACUUCCAGCAAUCGGUC [Fam1B.1 aminoacylation ribozyme variant]
Result :: 2.03

Query :: Record request: self-aminoacylation value, item CUACUUCAACCAAUCGGUCUU [Fam1A.1 aminoacylation ribozyme variant]
Result :: 0.934

Query :: Record request: self-aminoacylation value, item CCACACUGCAAGCAAUCGAUC [Fam1B.1 aminoacylation ribozyme variant]
Result :: 1.07

Query :: Record request: self-aminoacylation value, item AAGUUUGCGUAUAGUCGCAAG [Fam3.1 aminoacylation ribozyme variant]
Result :: 0.996

Query :: Record request: self-aminoacylation value, item AUUCGCCCAGGUCAUCGGGUG [Fam2.2 aminoacylation ribozyme variant]
Result :: 3.96

Query :: Record request: self-aminoacylation value, item AUUUACCUAGGCCAUCGGGUG [Fam2.2 aminoacylation ribozyme variant]
Result :: 3.2

Query :: Record request: self-aminoacylation value, item AUUCACCUAGUUCAUCAGGUG [Fam2.2 aminoacylation ribozyme variant]
Result :: 0.934

Query :: Record request: self-aminoacylation value, item AUUCACUUAGGUCUUCGGGUG [Fam2.2 aminoacylation ribozyme variant]
Result :: 2.71

Query :: Record request: self-aminoacylation value, item UUACUUCAAACAAUCUGUCUG [Fam1A.1 aminoacylation ribozyme variant]
Result :: 1.35

Query :: Record request: self-aminoacylation value, item CUACUUCAAACCAUCGGUCCG [Fam1A.1 aminoacylation ribozyme variant]
Result :: 0.922

Query :: Record request: self-aminoacylation value, item AUUCACCUAUGUCACCGGGUG [Fam2.2 aminoacylation ribozyme variant]
Result :: 2.27

Query :: Record request: self-aminoacylation value, item AUUCACCUAUGUCGUCGGGUG [Fam2.2 aminoacylation ribozyme variant]
Result :: 1.15

----------
So I've got a bunch of sequences here, and I need their self-aminoacylation values.
tested on: biotinyl-Val-oxazolone; test: self-aminoacylation, catalytic enhancement (BVO) (fold over background); higher = more active; k-Seq, kA / k0A0; sequences stand for … in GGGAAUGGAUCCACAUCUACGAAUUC…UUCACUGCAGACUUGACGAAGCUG
Fewer inactive variants are shown than the library holds.
Reply with the value as a number alone.

Query :: Hello, I am looking for reported self-aminoacylation with biotinyl-Val-oxazolone for CUACUUCAAACAACCGGUAUG [Fam1A.1 aminoacylation ribozyme variant] . Could you help?
Result :: 0.805

Query :: Hello, I am looking for reported self-aminoacylation with biotinyl-Val-oxazolone for ACGUUUGCUAAUAGUCGAAAG [Fam3.1 aminoacylation ribozyme variant] . Could you help?
Result :: 1.24

Query :: Hello, I am looking for reported self-aminoacylation with biotinyl-Val-oxazolone for AUUACCCUGGUCAUCGGGUGA [Fam2.1 aminoacylation ribozyme variant] . Could you help?
Result :: 60.9

Query :: Hello, I am looking for reported self-aminoacylation with biotinyl-Val-oxazolone for CUACUUAAAACAAUCGGUCUA [Fam1A.1 aminoacylation ribozyme variant] . Could you help?
Result :: 0.894

Query :: Hello, I am looking for reported self-aminoacylation with biotinyl-Val-oxazolone for AUUCACCUAUGUGAUCGGGUG [Fam2.2 aminoacylation ribozyme variant] . Could you help?
Result :: 1.99

Query :: Hello, I am looking for reported self-aminoacylation with biotinyl-Val-oxazolone for AUUACCCUGGCCAUCGAUUGA [Fam2.1 aminoacylation ribozyme variant] . Could you help?
Result :: 0.974

Query :: Hello, I am looking for reported self-aminoacylation with biotinyl-Val-oxazolone for AAGUCUGCUAAUAGUCGAAAG [Fam3.1 aminoacylation ribozyme variant] . Could you help?
Result :: 1.04

Query :: Hello, I am looking for reported self-aminoacylation with biotinyl-Val-oxazolone for AAGUUUGCUAAUCGUCGCACG [Fam3.1 aminoacylation ribozyme variant] . Could you help?
Result :: 0.873

Query :: Hello, I am looking for reported self-aminoacylation with biotinyl-Val-oxazolone for AUUACACUGGUCGUCGAGUGA [Fam2.1 aminoacylation ribozyme variant] . Could you help?
Result :: 1.38

Query :: Hello, I am looking for reported self-aminoacylation with biotinyl-Val-oxazolone for UGUACCCUGGUCAUCGAGUGA [Fam2.1 aminoacylation ribozyme variant] . Could you help?
Result :: 3.66

Query :: Hello, I am looking for reported self-aminoacylation with biotinyl-Val-oxazolone for AUUCACCUAGGCUAUCGGGUG [Fam2.2 aminoacylation ribozyme variant] . Could you help?
Result :: 3.06

Query :: Hello, I am looking for reported self-aminoacylation with biotinyl-Val-oxazolone for CCGCAAUUCAAGCAAUCGGUC [Fam1B.1 aminoacylation ribozyme variant] . Could you help?
Result :: 2.12

Query :: Hello, I am looking for reported self-aminoacylation with biotinyl-Val-oxazolone for AUUACCCUGGCCAUCGAGCGA [Fam2.1 aminoacylation ribozyme variant] . Could you help?
Result :: 1.93

Query :: Hello, I am looking for reported self-aminoacylation with biotinyl-Val-oxazolone for CUACUUCAAACCAUCGGACUG [Fam1A.1 aminoacylation ribozyme variant] . Could you help?
Result :: 0.873

Query :: Hello, I am looking for reported self-aminoacylation with biotinyl-Val-oxazolone for CUACUUGAGACAAUCGGUCUG [Fam1A.1 aminoacylation ribozyme variant] . Could you help?
Result :: 1.01

Query :: Hello, I am looking for reported self-aminoacylation with biotinyl-Val-oxazolone for AUGACCCUGGGCAUCGAGUGA [Fam2.1 aminoacylation ribozyme variant] . Could you help?
Result :: 3.32

Query :: Hello, I am looking for reported self-aminoacylation with biotinyl-Val-oxazolone for AUAACCCUGGUCAUCGAAUGA [Fam2.1 aminoacylation ribozyme variant] . Could you help?
Result :: 0.954

Query :: Hello, I am looking for reported self-aminoacylation with biotinyl-Val-oxazolone for CCGCACUCCAAGCAAUCGGUC [Fam1B.1 aminoacylation ribozyme variant] . Could you help?
Result :: 1.7
